Recorded RP-LC retention time, one value per entry.
- TEST DETAILS: gradient 5% acetonitrile 3 min, to 50% in 2 min, to 85% in 15 min, held 3 min, 100 µL/min
- CONDITIONS: column: Zorbax Extend-C18 2.1 x 50 mm; eluents: water / acetonitrile, 0.1% formic acid
Give the quantity in s, number only.

MOLECULE	RP-LC retention time (s)
CN(CCc1noc(-c2ccc(C(=O)N3CCOCC3)cc2)n1)C(=O)C1CCCCC1	752
CC(C)Cn1cc(CCNC(=O)c2c(F)cccc2F)c2cccnc21	788

Return reported RP-LC retention time; argument: COc1ccc(NC(=O)c2cnc3c(c2)c(=O)n(C)c(=O)n3-c2ccccc2)cc1 862

Same again, this time with COc1ccc(-c2nnc(-c3ccc(Cl)c(S(=O)(=O)N4CCC(C)CC4)c3)o2)cc1 1230

Same again, this time with COc1cccc(Cn2nc(-c3nc(-c4ccc(Cl)cc4)no3)ccc2=O)c1 1190

Same again, this time with CCNC(=O)C1CCc2sc(C(=O)N3CCCCCC3)cc2C1 (centres undefined) 748

Same again, this time with CC(C)C(=O)N1CCc2ccccc2C1C(=O)N1CCN(c2ccc(F)cc2)CC1 (centres undefined) 930

Same again, this time with O=C(Nc1nc(-c2nc3ccccc3s2)cs1)c1ccc([N+](=O)[O-])s1 1020

Same again, this time with CN1CCN(C(=O)CN2C(=O)C3CCCCN3c3ccc(S(=O)(=O)N4CCCC4)cc32)CC1 (centres undefined) 631

---

- TEST DETAILS: gradient 5% acetonitrile 3 min, to 50% in 2 min, to 85% in 15 min, held 3 min, 100 µL/min
- CONDITIONS: column: Zorbax Extend-C18 2.1 x 50 mm; eluents: water / acetonitrile, 0.1% formic acid
Decision: RP-LC retention time >= 700 s yields 1 (yes), all other cases yield 0 (no).

Consider the worked cases shown below.
COMPOUND	CLASS
COc1cccc(CNC(=O)NCCC2CCN(S(=O)(=O)c3ccccc3)CC2)c1	1 (yes)
Cn1nc(-c2nc(-c3ccccc3F)no2)c2c1CCN(C(=O)NC1CCCC1)C2	1 (yes)
COc1cccc(C2Cn3nnc(-c4nc(-c5ccc(OC)c(F)c5)no4)c3CO2)c1 (stereo not given)	1 (yes)

Note: attention shifts to another entry.
Quick check: does CCOC(=O)N1CCN(C(=O)Cc2csc(NC(=O)c3cnccn3)n2)CC1 have RP-LC retention time greater than or equal to 700 s? 0 (no)

---

- TEST DETAILS: gradient 5% acetonitrile 3 min, to 50% in 2 min, to 85% in 15 min, held 3 min, 100 µL/min
- CONDITIONS: column: Zorbax Extend-C18 2.1 x 50 mm; eluents: water / acetonitrile, 0.1% formic acid
METRIC: RP-LC retention time (s)
Give the quantity in s, number only.

Solved cases below.
COMPOUND	RP-LC retention time (s)
O=C(NC1CCN(c2nnc3ccc(Cl)cn23)CC1)c1ccco1	606
CCC(=O)N1CCOc2ccc(N(C)C)cc2C1	570
O=C(Cn1ccnc1-c1ccnc(N2CCSCC2)c1)NC1CCCC1	619
Cc1sc(C)c(S(=O)(=O)NCc2ccc3c(c2)OCO3)c1-c1cc(C(F)(F)F)on1	1120
CCCNC(=O)N(C1CCOCC1)C1CCN(C(=O)c2cccs2)CC1	657
CCOC(=O)c1cc(C2CC2)nc2c1c(=O)n(CCc1c(C)noc1C)c(=O)n2C	980

Return reported RP-LC retention time; argument: O=C(C1CCN(c2nnc(-c3ccccc3)o2)CC1)N1CCN(c2ccccc2)CC1 857

Same again, this time with CCn1cc(C(=O)Nc2ccc(Br)cc2F)c(=O)c2ccc(C)nc21 1290

Same again, this time with CCc1noc(-c2cnc3nc(C)ccc3c2NCc2ccc(OC)cc2OC)n1 752

Same again, this time with COc1ccc2nc(C(=O)NCc3ccc(F)cc3)cn2n1 783

Same again, this time with CC(NC(=O)COc1ccc(NC(=O)C2CC2)cn1)c1ccccc1 (stereo not given) 744

Same again, this time with CCOC(=O)COc1ccc2c(c1)C(=O)CC1(CCN(C(C)=O)CC1)O2 718

Same again, this time with O=C(NCc1csc(C2CCCN(C(=O)c3c(F)cccc3F)C2)n1)C1CCC1 (stereo not given) 742

Same again, this time with Cc1ccc(CNC(=O)Cn2c(C)cc(-c3nnc(C4CCC4)o3)c2C)cc1C 947

Same again, this time with CC(C)S(=O)(=O)c1cccc(-c2nnc(N)o2)c1 589

Same again, this time with CC(=O)N1CCC([C@@H]2CN(C(=O)C3(C)CCCCC3)C[C@H]2CO)CC1 631

Same again, this time with O=c1[nH]cc(S(=O)(=O)N2CCCCC2)c(=O)[nH]1 604

Same again, this time with Cc1ccc(OCC(=O)N(Cc2ccc(Br)o2)C2CCS(=O)(=O)C2)cc1C (stereo not given) 996

Same again, this time with COc1cccc(CN2CCCn3nc(-c4cccc(OC)c4)cc3C2)c1 561

Same again, this time with O=C(Cn1cnc2c(sc3nc(-c4ccccc4)ccc32)c1=O)NCCc1ccc(Cl)cc1 1060

Every entry's value here was drawn from the METLIN SMRT retention time set (Domingo-Almenara et al. 2019).
